Reference for the values: the supplement of paper PMC8149375

System: UO-31
Experiment: minimum viability across doses, drug alone, relative to DMSO (fraction); higher = less growth inhibition
Details: treatment: drug alone; 5 days
Rule: measured minimum viability across doses below 0.07 gets rule met; anything equal to or greater than 0.07 gets rule not met.

q: Determine whether this molecule shows minimum viability across doses lower than 0.07 (ties excluded): Nc1cccc(-c2cc3c(Oc4cccc(O)c4)ncnc3[nH]2)c1
a: rule not met

q: Determine whether this molecule shows minimum viability across doses lower than 0.07 (ties excluded): COc1cc2c(Oc3ccc(NC(=O)C4(C(=O)Nc5ccc(F)cc5)CC4)cc3F)ccnc2cc1OCCCN1CCOCC1
a: rule met

q: Determine whether this molecule shows minimum viability across doses lower than 0.07 (ties excluded): COc1ccc2c(OCc3nnc4ccc(-c5ccccc5)nn34)ccnc2c1
a: rule not met

q: Determine whether this molecule shows minimum viability across doses lower than 0.07 (ties excluded): CC(=O)Nc1nc(C)c(-c2ccc(Cl)c(S(=O)(=O)NCCO)c2)s1
a: rule not met

q: Determine whether this molecule shows minimum viability across doses lower than 0.07 (ties excluded): Cc1[nH]c(/C=C2\C(=O)Nc3ccc(S(=O)(=O)Cc4c(Cl)cccc4Cl)cc32)c(C)c1C(=O)N1CCC[C@@H]1CN1CCCC1
a: rule met

q: Determine whether this molecule shows minimum viability across doses lower than 0.07 (ties excluded): CN1CC[C@H](c2c(O)cc(O)c3c(=O)cc(-c4ccccc4Cl)oc23)[C@H](O)C1.Cl [Flavopiridol hydrochloride]
a: rule met

q: Determine whether this molecule shows minimum viability across doses lower than 0.07 (ties excluded): Cc1cc(Nc2nc(N[C@@H](C)c3ccc(F)cc3)c(C#N)cc2F)n[nH]1
a: rule met

q: Determine whether this molecule shows minimum viability across doses lower than 0.07 (ties excluded): CS(=O)(=O)O.Cc1ccc(NC(=O)c2ccc(CN3CCN(C)CC3)cc2)cc1Nc1nccc(-c2cccnc2)n1 [Imatinib Mesylate]
a: rule not met

q: Determine whether this molecule shows minimum viability across doses lower than 0.07 (ties excluded): CC(C)(C)c1cc(/C=C(\C#N)C(N)=S)cc(C(C)(C)C)c1O
a: rule not met

q: Determine whether this molecule shows minimum viability across doses lower than 0.07 (ties excluded): Cc1ccccc1-n1c(Cn2ncc3c(N)ncnc32)nc2cccc(C)c2c1=O
a: rule not met

q: Determine whether this molecule shows minimum viability across doses lower than 0.07 (ties excluded): CS(=O)(=O)O.O=C(Nc1cccc(Cl)c1)Nc1ncc(CCNc2ncnc3ccsc23)s1
a: rule not met

q: Determine whether this molecule shows minimum viability across doses lower than 0.07 (ties excluded): CNC(=O)c1cc(Oc2ccc(NC(=O)Nc3cc(C(C)(C)C)nn3-c3ccc4ncccc4c3)c(F)c2)ccn1 [DCC-2036 (Rebastinib)]
a: rule met

q: Determine whether this molecule shows minimum viability across doses lower than 0.07 (ties excluded): Cc1cc(C(C)Nc2ccccc2)c2nc(N3CCOCC3)cc(=O)n2c1 (stereo not given)
a: rule not met

q: Determine whether this molecule shows minimum viability across doses lower than 0.07 (ties excluded): S=C(NCc1ccc2c(c1)OCO2)N1CCN(c2ncnc3c2oc2ccccc23)CC1
a: rule met

q: Determine whether this molecule shows minimum viability across doses lower than 0.07 (ties excluded): CC[C@H](Nc1ncnc2[nH]cnc12)c1nc2cccc(F)c2c(=O)n1-c1ccccc1
a: rule not met

====

System: TK-10
Test: GI50 of drug in presence of dasatinib; higher = less potent
Conditions: treatment: drug + dasatinib (fixed dose, not stated); 5 days
For each record, write down the corresponding GI50 of drug.
Give bare numbers, in µM.

CNC(=O)Nc1ccc(-c2nc(N3CC4CCC(C3)O4)c3cnn(C4CCC5(CC4)OCCO5)c3n2)cc1 + Cc1nc(Nc2ncc(C(=O)Nc3c(C)cccc3Cl)s2)cc(N2CCN(CCO)CC2)n1: 0.0325

Below: the item to evaluate.
q: Recall the recorded GI50 of drug for Cc1ccc(F)c(NC(=O)Nc2ccc(-c3cccc4[nH]nc(N)c34)cc2)c1 [Linifanib (ABT-869)] + Cc1nc(Nc2ncc(C(=O)Nc3c(C)cccc3Cl)s2)cc(N2CCN(CCO)CC2)n1 with TK-10 and state it.
a: 3.45

====

System: UO-31
Assay: minimum viability across doses, drug alone, relative to DMSO (fraction); higher = less growth inhibition
Conditions: treatment: drug alone; 5 days
Rule: measured minimum viability across doses below 0.02 gets True; anything equal to or greater than 0.02 gets False.

Here are 3 compounds together with their reported answers.
CC[C@@H]1C(=O)N(C)c2cnc(Nc3ccc(C(=O)NC4CCN(C)CC4)cc3OC)nc2N1C1CCCC1 [BI 2536]: True
N#C/C(=C\c1ccc(O)c(O)c1)C(=O)NCc1ccccc1 [AG-490]: False
C[C@]1(O)C[C@@H](c2nc(-c3ccc4ccc(-c5ccccc5)nc4c3)c3c(N)nccn32)C1 [Linsitinib (OSI-906)]: False

q: Determine whether this compound shows minimum viability across doses lower than 0.02 (ties excluded): Cn1c(=O)n(-c2ccc(C(C)(C)C#N)cc2)c2c3cc(-c4cnc5ccccc5c4)ccc3ncc21 [BEZ235 (NVP-BEZ235)]
a: True

q: Determine whether this compound shows minimum viability across doses lower than 0.02 (ties excluded): CC(C)NC[C@@H](C(=O)N1CCN(c2ncnc3c2[C@H](C)C[C@H]3O)CC1)c1ccc(Cl)cc1 [GDC-0068]
a: True

q: Determine whether this compound shows minimum viability across doses lower than 0.02 (ties excluded): Cl.Cl.Fc1cc(-c2cccc3ncc(-c4cnn(C5CCNCC5)c4)nc23)cc(F)c1CN1CCOCC1 [NVP-BSK805]
a: True

q: Determine whether this compound shows minimum viability across doses lower than 0.02 (ties excluded): CCC[C@H](NC(=O)/C(C#N)=C/c1cccc(Br)n1)c1ccccc1 [WP1130]
a: True

q: Determine whether this compound shows minimum viability across doses lower than 0.02 (ties excluded): O=C1NC(=O)[C@@H](c2cn3c4c(cccc24)CCC3)[C@@H]1c1c[nH]c2ccccc12 [ARQ 197 (Tivantinib)]
a: False

====

System: ACHN
Experiment: AUC of dose-response viability curve, drug + dasatinib, normalised to DMSO (arbitrary (AUC of normalised viability)); higher = less growth inhibition
Details: treatment: drug + dasatinib (fixed dose, not stated); 5 days
For each record, write down the corresponding AUC of dose-response viability curve.
Numbers only.

Would you please look over these solved cases?
Cc1ccccc1-n1c(Cn2ncc3c(N)ncnc32)nc2cccc(C)c2c1=O [PIK-293] + Cc1nc(Nc2ncc(C(=O)Nc3c(C)cccc3Cl)s2)cc(N2CCN(CCO)CC2)n1 [dasatinib]: 2.17
O=c1cc(N2CCOCC2)oc2c(-c3cccc4c3sc3ccccc34)cccc12 + Cc1nc(Nc2ncc(C(=O)Nc3c(C)cccc3Cl)s2)cc(N2CCN(CCO)CC2)n1 [dasatinib]: 2.09
Cn1cnc(N)c2ncnc1-2 [3-Methyladenine] + Cc1nc(Nc2ncc(C(=O)Nc3c(C)cccc3Cl)s2)cc(N2CCN(CCO)CC2)n1 [dasatinib]: 1.56

Give one value of AUC of dose-response viability curve per listed compound.
1. CCN(CCO)CCCOc1ccc2c(Nc3cc(CC(=O)Nc4cccc(F)c4)n[nH]3)ncnc2c1 [Barasertib (AZD1152-HQPA)] + Cc1nc(Nc2ncc(C(=O)Nc3c(C)cccc3Cl)s2)cc(N2CCN(CCO)CC2)n1 [dasatinib]
2. CNC(=O)c1cc(Oc2ccc(NC(=O)Nc3ccc(Cl)c(C(F)(F)F)c3)cc2)ccn1.Cc1ccc(S(=O)(=O)O)cc1 [Sorafenib (Nexavar)] + Cc1nc(Nc2ncc(C(=O)Nc3c(C)cccc3Cl)s2)cc(N2CCN(CCO)CC2)n1 [dasatinib]
3. O=C(c1ccc(/C=C/c2n[nH]c3ccccc23)cc1)N1CCNCC1 [KW 2449] + Cc1nc(Nc2ncc(C(=O)Nc3c(C)cccc3Cl)s2)cc(N2CCN(CCO)CC2)n1 [dasatinib]
4. CC1(COc2ccc3c(c2)ncn3-c2ccc3cccc(N4CCC(N)CC4)c3n2)COC1 + Cc1nc(Nc2ncc(C(=O)Nc3c(C)cccc3Cl)s2)cc(N2CCN(CCO)CC2)n1 [dasatinib]
5. CS(=O)c1ccc(-c2nc(-c3ccc(F)cc3)c(-c3ccncc3)[nH]2)cc1 (centres undefined) + Cc1nc(Nc2ncc(C(=O)Nc3c(C)cccc3Cl)s2)cc(N2CCN(CCO)CC2)n1 [dasatinib]
6. O=C(O)[C@]1(Cc2cccc(Nc3nccs3)n2)CC[C@@H](Oc2cccc(Cl)c2F)CC1 [MK-5108 (VX-689)] + Cc1nc(Nc2ncc(C(=O)Nc3c(C)cccc3Cl)s2)cc(N2CCN(CCO)CC2)n1 [dasatinib]

a:
1: 1.83; 2: 2.33; 3: 1.64; 4: 1.96; 5: 1.82; 6: 1.51

Give one value of AUC of dose-response viability curve per listed compound.
1. FC(F)(F)c1ccc(/C=C/c2nc(COc3ccc(CCCCn4ccnn4)cc3)co2)cc1 [Mubritinib (TAK 165)] + Cc1nc(Nc2ncc(C(=O)Nc3c(C)cccc3Cl)s2)cc(N2CCN(CCO)CC2)n1 [dasatinib]
2. CCC[C@H](NC(=O)/C(C#N)=C/c1cccc(Br)n1)c1ccccc1 [WP1130] + Cc1nc(Nc2ncc(C(=O)Nc3c(C)cccc3Cl)s2)cc(N2CCN(CCO)CC2)n1 [dasatinib]
3. O=C(NC1CCNCC1)c1n[nH]cc1NC(=O)c1c(Cl)cccc1Cl [AT7519] + Cc1nc(Nc2ncc(C(=O)Nc3c(C)cccc3Cl)s2)cc(N2CCN(CCO)CC2)n1 [dasatinib]
4. O=C1c2ccccc2-c2n[nH]c3cccc1c23 + Cc1nc(Nc2ncc(C(=O)Nc3c(C)cccc3Cl)s2)cc(N2CCN(CCO)CC2)n1 [dasatinib]
5. Nc1cccc(-c2cc3c(Oc4cccc(O)c4)ncnc3[nH]2)c1 [TWS119] + Cc1nc(Nc2ncc(C(=O)Nc3c(C)cccc3Cl)s2)cc(N2CCN(CCO)CC2)n1 [dasatinib]
6. CCc1cc2c(cc1N1CCC(N3CCOCC3)CC1)C(C)(C)c1[nH]c3cc(C#N)ccc3c1C2=O + Cc1nc(Nc2ncc(C(=O)Nc3c(C)cccc3Cl)s2)cc(N2CCN(CCO)CC2)n1 [dasatinib]
7. Cc1cccc(-c2nc(C(C)(C)C)[nH]c2-c2ccc3nccnc3c2)n1 + Cc1nc(Nc2ncc(C(=O)Nc3c(C)cccc3Cl)s2)cc(N2CCN(CCO)CC2)n1 [dasatinib]
8. Cn1cnc2c(F)c(Nc3ccc(Br)cc3Cl)c(C(=O)NOCCO)cc21 [AZD6244 (Selumetinib)] + Cc1nc(Nc2ncc(C(=O)Nc3c(C)cccc3Cl)s2)cc(N2CCN(CCO)CC2)n1 [dasatinib]

a:
1.26
1.95
1.44
2.22
1.62
1.82
2.06
1.64

Give one value of AUC of dose-response viability curve per listed compound.
1. CC(C)n1nc(-c2ccc3oc(N)nc3c2)c2c(N)ncnc21 [INK 128] + Cc1nc(Nc2ncc(C(=O)Nc3c(C)cccc3Cl)s2)cc(N2CCN(CCO)CC2)n1 [dasatinib]
2. Cn1cc(C2=C(c3cn(C4CCN(Cc5ccccn5)CC4)c4ccccc34)C(=O)NC2=O)c2ccccc21 + Cc1nc(Nc2ncc(C(=O)Nc3c(C)cccc3Cl)s2)cc(N2CCN(CCO)CC2)n1 [dasatinib]

a:
0.554
2.28
